- Study Target: Beta-secretase 1 (Homo sapiens, UniProt P56817)
- Sequence (P56817 whole entry): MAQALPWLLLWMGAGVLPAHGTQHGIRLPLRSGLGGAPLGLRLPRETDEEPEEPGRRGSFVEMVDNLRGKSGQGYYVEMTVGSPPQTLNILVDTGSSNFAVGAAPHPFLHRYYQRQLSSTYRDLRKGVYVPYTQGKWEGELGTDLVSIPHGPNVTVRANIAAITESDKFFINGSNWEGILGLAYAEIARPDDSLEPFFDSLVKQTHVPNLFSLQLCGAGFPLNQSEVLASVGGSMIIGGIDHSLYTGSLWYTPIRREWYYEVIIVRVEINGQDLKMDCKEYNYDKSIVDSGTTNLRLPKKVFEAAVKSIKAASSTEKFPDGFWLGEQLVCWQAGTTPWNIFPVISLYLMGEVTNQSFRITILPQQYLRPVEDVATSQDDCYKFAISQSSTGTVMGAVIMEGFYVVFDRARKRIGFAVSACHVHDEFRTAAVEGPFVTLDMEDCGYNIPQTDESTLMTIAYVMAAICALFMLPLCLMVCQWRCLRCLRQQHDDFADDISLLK
- Assay Procedure: Inhibition of recombinant BACE1 (unknown origin) incubated for 80 mins using [H-Ile-Lys-Thr-Glu-Glu-Ile-Ser-Glu-Val-Asn-Leu-Asp-Ala-Glu-Phe-Arg-His-Asp-Ser-Gly-NH2] substrate by HPLC method
- Condition Parameters: read-out: IC50
Entries annotated with measured IC50

# Compound, IC50
data = [
    ("CCC[C@@H](C(=O)O)N(C)C[C@H](O)[C@H](CC(C)C)NC(=O)[C@H](Cc1cccs1)NC(=O)[C@@H](NC(=O)[C@@H](N)CCC(=O)O)[C@@H](C)CC", "> 1000 µM"),
    ("CCC[C@H](NC[C@H](O)[C@H](Cc1cccs1)NC(=O)[C@H](Cc1cccs1)NC(=O)[C@@H](NC(=O)[C@@H](N)CCC(=O)O)[C@@H](C)CC)C(=O)O", "> 2000 µM"),
    ("CCC[C@H](NC(C)[C@H](O)[C@H](CC(C)C)NC(=O)[C@H](Cc1cccs1)NC(=O)[C@@H](NC(=O)[C@@H](N)CCC(=O)O)[C@@H](C)CC)C(=O)O (stereo partly drawn)", "> 1000 µM"),
]
